Origin of the recorded values: patent US7145010B2

# Test: Solubility in extremely nonpolar to polar solvents
# Condition: toluene, 25° C.
Measured Solubility in Toluene (25° C.) accompanies every entry in the list below.

Worked set:
>>> measured("CC(C)c1cccc(C(C)C)c1N1C(=O)c2cc(Oc3ccc(C(C)(C)CC(C)(C)C)cc3)c3c4c(Oc5ccc(C(C)(C)CC(C)(C)C)cc5)cc5c6c(cc(Oc7ccc(C(C)(C)CC(C)(C)C)cc7)c(c7c(Oc8ccc(C(C)(C)CC(C)(C)C)cc8)cc(c2c37)C1=O)c64)C(=O)N(c1c(C(C)C)cccc1C(C)C)C5=O [Example 2]")
">400 mg/mL"
>>> measured("CC(C)c1cccc(C(C)C)c1N1C(=O)c2cc(Oc3ccc(C(C)(C)CC4CCCCC4)cc3)c3c4c(Oc5ccc(C(C)(C)CC6CCCCC6)cc5)cc5c6c(cc(Oc7ccc(C(C)(C)CC8CCCCC8)cc7)c(c7c(Oc8ccc(C(C)(C)CC9CCCCC9)cc8)cc(c2c37)C1=O)c64)C(=O)N(c1c(C(C)C)cccc1C(C)C)C5=O [Example 3]")
">350 mg/mL"
>>> measured("CCCCCCCCCCCCN1C(=O)c2ccc3c4c(Oc5ccc(C(C)(C)CC(C)(C)C)cc5)cc5c6c(ccc(c7c(Oc8ccc(C(C)(C)CC(C)(C)C)cc8)cc(c2c37)C1=O)c64)C(=O)N(CCCCCCCCCCCC)C5=O [Example 5]")
"155 mg/mL"
>>> measured("CC(C)c1cccc(C(C)C)c1N1C(=O)c2ccc3c4c(Oc5ccc(C(C)(C)CC(C)(C)C)cc5)cc5c6c(ccc(c7c(Oc8ccc(C(C)(C)CC(C)(C)C)cc8)cc(c2c37)C1=O)c64)C(=O)N(c1c(C(C)C)cccc1C(C)C)C5=O [Example 4]")
">250 mg/mL"

Kindly consider the entry below.
Query :: Return reported Solubility in Toluene (25° C.); argument: CC(C)c1cccc(C(C)C)c1N1C(=O)c2cc(Oc3ccc(C(C)(C)CC(C)(C)C)cc3)c3c4cccc5c(Oc6ccc(C(C)(C)CC(C)(C)C)cc6)ccc(c6c(Oc7ccc(C(C)(C)CC(C)(C)C)cc7)cc(c2c36)C1=O)c54 [Example 1]
Result :: >250 mg/mL

###

# Test: Solubility in extremely nonpolar to polar solvents
# Condition: isopropanol, 50° C.
Measurement type: Solubility in Isopropanol (50° C.) (mg/mL)
Give just the numeric value; mg/mL need not be written.

>>> measured("CC(C)c1cccc(C(C)C)c1N1C(=O)c2cc(Oc3ccc(C(C)(C)CC4CCCCC4)cc3)c3c4c(Oc5ccc(C(C)(C)CC6CCCCC6)cc5)cc5c6c(cc(Oc7ccc(C(C)(C)CC8CCCCC8)cc7)c(c7c(Oc8ccc(C(C)(C)CC9CCCCC9)cc8)cc(c2c37)C1=O)c64)C(=O)N(c1c(C(C)C)cccc1C(C)C)C5=O [Example 3]")
87
>>> measured("CC(C)c1cccc(C(C)C)c1N1C(=O)c2ccc3c4c(Oc5ccc(C(C)(C)CC(C)(C)C)cc5)cc5c6c(ccc(c7c(Oc8ccc(C(C)(C)CC(C)(C)C)cc8)cc(c2c37)C1=O)c64)C(=O)N(c1c(C(C)C)cccc1C(C)C)C5=O [Example 4]")
59
>>> measured("CCCCCCCCCCCCN1C(=O)c2ccc3c4c(Oc5ccc(C(C)(C)CC(C)(C)C)cc5)cc5c6c(ccc(c7c(Oc8ccc(C(C)(C)CC(C)(C)C)cc8)cc(c2c37)C1=O)c64)C(=O)N(CCCCCCCCCCCC)C5=O [Example 5]")
47
>>> measured("CC(C)c1cccc(C(C)C)c1N1C(=O)c2cc(Oc3ccc(C(C)(C)CC(C)(C)C)cc3)c3c4cccc5c(Oc6ccc(C(C)(C)CC(C)(C)C)cc6)ccc(c6c(Oc7ccc(C(C)(C)CC(C)(C)C)cc7)cc(c2c36)C1=O)c54 [Example 1]")
56

Kindly consider the entry below.
Query :: Return reported Solubility in Isopropanol (50° C.); argument: CC(C)c1cccc(C(C)C)c1N1C(=O)c2cc(Oc3ccc(C(C)(C)CC(C)(C)C)cc3)c3c4c(Oc5ccc(C(C)(C)CC(C)(C)C)cc5)cc5c6c(cc(Oc7ccc(C(C)(C)CC(C)(C)C)cc7)c(c7c(Oc8ccc(C(C)(C)CC(C)(C)C)cc8)cc(c2c37)C1=O)c64)C(=O)N(c1c(C(C)C)cccc1C(C)C)C5=O [Example 2]
Result :: 92
